Where do the numbers come from? From ChEMBL document CHEMBL1833915.

- test system: B1 bradykinin receptor (Homo sapiens, UniProt P46663)
- Sequence (P46663 whole entry): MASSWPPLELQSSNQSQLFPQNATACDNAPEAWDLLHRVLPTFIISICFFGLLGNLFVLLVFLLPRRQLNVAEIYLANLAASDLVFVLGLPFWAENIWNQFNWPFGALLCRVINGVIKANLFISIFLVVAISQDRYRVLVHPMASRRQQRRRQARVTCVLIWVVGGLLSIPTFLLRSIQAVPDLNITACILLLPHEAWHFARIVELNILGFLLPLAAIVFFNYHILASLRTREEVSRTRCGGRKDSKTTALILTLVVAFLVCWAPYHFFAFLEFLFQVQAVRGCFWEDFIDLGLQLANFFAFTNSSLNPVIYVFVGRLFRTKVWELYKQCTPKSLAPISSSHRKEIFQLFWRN
- assay text: Antagonist activity at human B1 receptor expressed in CHO cells by aequorin-based calcium flux assay
- Format: functional, cell-based
endpoint label: pIC50
# pIC50 is unitless: minus log10 of the molar concentration; print number only

Use the examples below as a reference point.
# line notation, test system, pIC50
measured = [
    ("Cc1nn(-c2ccc(C(=O)N[C@@H]3CCCc4cc(CN5CCCCC5)ccc43)cn2)c(=O)c2c(F)cccc12", "B1 bradykinin receptor (Homo sapiens, UniProt P46663)", 10.05),
    ("Cc1nn(-c2ccc(C(=O)N[C@@H]3CCCc4cc(CN5CCCCC5)ccc43)cn2)c(=O)c2c(F)ccc(F)c12", "B1 bradykinin receptor (Homo sapiens, UniProt P46663)", 9.52),
]

-- ask Can you look up the measured pIC50 of `Cc1nn(-c2ccc(C(=O)N[C@@H]3CCCc4cc(CN5CCCCC5)ccc43)cc2)c(=O)c2c(Cl)cccc12` for me?
-- reply 9.00
